Reference for the values: paper PMC10418735

- METHOD NOTES: Lipophilicity by RP-HPLC (methanol/water, RP-18 column)
- Type: physicochemical
- CONDITION CONTEXT: RP-HPLC, methanol/water, extrapolated to zero methanol concentration, 25 °C
Please go through the items and note down their log kw.
Give bare numbers.

| COMPOUND | VALUE KIND | RECORDED RESULT |
| --- | --- | --- |
| CC1SC(NC23CC4CC(CC(C4)C2)C3)=NC1=O (centres unmarked) [Compound 19] | log kw | 3.22 |
| O=C1CSC(NC23CC4CC(CC(C4)C2)C3)=N1 [Compound 28, 2-(Adamantylamino)thiazol-4(5H)-one] | log kw | 2.87 |
| CC(C)(C)NC1=NC(=O)C2(CCC2)S1 [Compound 18] | log kw | 2.15 |
| CC(C)NC1=NC(=O)C2(CCC2)S1 [Compound 9] | log kw | 1.79 |

Now for the compound whose log kw we want.
Name the reported log kw value associated with the compound CC(C)C1SC(NC23CC4CC(CC(C4)C2)C3)=NC1=O (centres unmarked) [Compound 22]
3.94
